Source of measurements: ChEMBL document CHEMBL3046260

Tested on: Aspergillus flavus
Experiment: Microbiostatic activity against Aspergillus flavus ATCC 10124
Format: functional, organism-based
Activity calls are given as the source filed them. The rule behind the calls is not given here.
TEST READOUT: Activity

Recorded Activity, per entry:
COMPOUND: O=C1COc2cc(F)ccc2N1CC1CCCO1 (stereo not drawn)
RESULT: Active

COMPOUND: O=C1COc2cc(Cl)ccc2N1CCc1ccccc1
RESULT: Active

COMPOUND: Clc1ccccc1C(c1ccccc1)(c1ccccc1)n1ccnc1
RESULT: Active

COMPOUND: O=C1COc2c(Cl)cccc2N1C1CCCCC1
RESULT: Active

COMPOUND: O=C1COc2cc(Cl)ccc2N1C1CCCCC1
RESULT: Active

QUERY: Form field: reported Activity of "CN[C@@H]1[C@H](O[C@H]2[C@H](O[C@H]3[C@H](O)[C@@H](O)[C@H](N=C(N)N)[C@@H](O)[C@@H]3N=C(N)N)O[C@@H](C)[C@]2(O)C=O)O[C@@H](CO)[C@H](O)[C@H]1O"
RESULT: Active

QUERY: For the compound "O=C1COc2cc(Br)ccc2N1C1CCCCC1" , what Activity is on record?
RESULT: Active

QUERY: Give the measured Activity of O=C1COc2cc(Cl)ccc2N1CC1CCCO1 (stereo not drawn) .
RESULT: Active

QUERY: Which Activity value is on record for "CC1(C)S[C@@H]2[C@H](NC(=O)[C@H](N)c3ccccc3)C(=O)N2[C@H]1C(=O)O" ?
RESULT: Active

QUERY: Request the reported Activity associated with "CCCCCCN1C(=O)COc2cc(Cl)ccc21"
RESULT: Active

QUERY: Requested field: Activity. Item: "O=C1COc2cc(Br)ccc2N1Cc1ccccc1"
RESULT: Active

QUERY: Look up Activity for this compound: "O=C1COc2cc(F)ccc2N1Cc1ccccc1"
RESULT: Active

QUERY: Report Activity for "CC(C)(O/N=C(\C(=O)N[C@@H]1C(=O)N2C(C(=O)[O-])=C(C[n+]3ccccc3)CS[C@H]12)c1csc(N)n1)C(=O)O" please.
RESULT: Active

* * *

System: Proteus vulgaris
Experiment: Microbiostatic activity against Proteus vulgaris ATCC 6896 after 24 hr
Calls of active or inactive are those of the source. No cut-off for these calls is given here.
TEST READOUT: Activity

Below, 5 compounds whose answers are already recorded.
COMPOUND: CC1(C)S[C@@H]2[C@H](NC(=O)[C@H](N)c3ccccc3)C(=O)N2[C@H]1C(=O)O
Activity: Active
--
COMPOUND: O=C1COc2cc(Br)ccc2N1CC1CCCO1 (stereo unspecified)
Activity: Active
--
COMPOUND: O=C1COc2cc(F)ccc2N1C1CCCCC1
Activity: Active
--
COMPOUND: O=C1COc2ccc(Cl)cc2N1Cc1ccccc1
Activity: Active
--
COMPOUND: CCCCCCN1C(=O)COc2cc(F)ccc21
Activity: Active

--- query ---
QUERY: Quick one: Activity of "O=C1COc2cc(Cl)ccc2N1C1CCCCC1" ?
RESULT: Active

* * *

Readings of MIC for the listed molecules
System: Candida albicans
Assay: Antimicrobial activity against Candida albicans ATCC 76615 after 48 hr by two-fold serial dilution method
Type: functional
Settings: ATCC 76615, 48 h
Respond numerically; units are µg/mL and should not be typed.

# annotated cases, reported MIC shown
MOLECULE: Clc1ccccc1C(c1ccccc1)(c1ccccc1)n1ccnc1 [CLOTRIMAZOLE]
TARGET OF ASSAY: Candida albicans
UNITS: µg/mL
MIC: 2
//
MOLECULE: CCCCCCN1C(=O)COc2cc(Br)ccc21
TARGET OF ASSAY: Candida albicans
UNITS: µg/mL
MIC: 128
//
MOLECULE: O=C1COc2ccc(Cl)cc2N1Cc1ccccc1
TARGET OF ASSAY: Candida albicans
UNITS: µg/mL
MIC: 64
//
MOLECULE: O=C1COc2cc(F)ccc2N1Cc1ccccc1
TARGET OF ASSAY: Candida albicans
UNITS: µg/mL
MIC: 256
//
MOLECULE: CCCCCCN1C(=O)COc2cc(F)ccc21
TARGET OF ASSAY: Candida albicans
UNITS: µg/mL
MIC: 128

QUERY: MIC for "O=C1COc2cc(Cl)ccc2N1Cc1ccccc1" ?
RESULT: 128

QUERY: Query (molecule): "CCCCCCN1C(=O)COc2cc(Cl)ccc21" ; field requested: MIC
RESULT: 512

QUERY: MIC lookup needed for O=C1COc2cc(Br)ccc2N1CC1CCCO1 (configuration not stated) , thanks.
RESULT: 128

QUERY: So what's the measured MIC for this one? "O=C1COc2cc(Br)ccc2N1Cc1ccccc1"
RESULT: 128

QUERY: Field request: MIC | item: O=C1COc2cc(F)ccc2N1CC1CCCO1 (configuration not stated)
RESULT: 256

QUERY: Query (molecule): O=C1COc2cc(Cl)ccc2N1CC1CCCO1 (configuration not stated) ; field requested: MIC
RESULT: 128

QUERY: Could you tell me which MIC is on file for "O=C1COc2c(Cl)cccc2N1C1CCCCC1" ?
RESULT: 128

QUERY: Dear colleague, I am looking for the recorded MIC of the following molecule: "O=C1COc2cc(Br)ccc2N1C1CCCCC1"
RESULT: 256

QUERY: For the molecule "O=C1COc2ccc(Cl)cc2N1C1CCCCC1" , what MIC is on record?
RESULT: 32

QUERY: MIC lookup needed for "O=C1COc2cc(Cl)ccc2N1C1CCCCC1" , thanks.
RESULT: 256

QUERY: Which MIC is reported for this molecule? "O=C1COc2cc(F)ccc2N1C1CCCCC1"
RESULT: 256

QUERY: Which MIC value belongs to "O=C1COc2cc(Cl)ccc2N1CCc1ccccc1" ?
RESULT: 128
